# assayed-system: Adenosine receptor A1 (Rattus norvegicus)
# Sequence (P25099 whole entry): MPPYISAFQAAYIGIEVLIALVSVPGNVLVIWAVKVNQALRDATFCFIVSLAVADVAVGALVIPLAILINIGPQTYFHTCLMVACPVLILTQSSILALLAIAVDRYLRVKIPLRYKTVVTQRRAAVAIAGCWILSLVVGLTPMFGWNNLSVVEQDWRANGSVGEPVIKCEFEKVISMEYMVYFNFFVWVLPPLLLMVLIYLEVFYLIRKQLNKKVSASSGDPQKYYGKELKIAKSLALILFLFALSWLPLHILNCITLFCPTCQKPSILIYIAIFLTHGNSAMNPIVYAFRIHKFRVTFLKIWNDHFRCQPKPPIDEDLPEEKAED
# assay-protocol: Inhibition of [3H]CHA binding to Adenosine A1 receptor in whole rat brain membranes
Hi! Just check whether Ki is below 6000 nM. Below gives Met, equal or above gives Not met.

- compound: "CCCOc1nc(N[C@H](CO)Cc2ccccc2)c2cnn(-c3ccccc3)c2n1 (stereo in doubt; 10a)"
  assigned-class: "Met"

Does this compound meet the criterion Ki < 6000 nM? CCCOC1=Nc2c(cnn2-c2ccccc2)C2=N[C@@H](C)[C@H](c3ccccc3)N12 Not met

Report whether reported Ki is lower than 6000 nM (strictly) for CCCOc1nc(N[C@H](CO)Cc2ccccc2)c2ncn(-c3ccccc3)c2n1 Met

Given CCCOc1nc(N[C@H](CO)Cc2ccccc2)c2cnn(-c3ccccc3)c2n1 (stereo in doubt; 10b) , is recorded Ki strictly lower than 6000 nM? Met

Consider CCCOc1nc(N[C@H](C)[C@@H](O)c2ccccc2)c2cnn(-c3ccccc3)c2n1 . Does its Ki lie strictly below 6000 nM? Met

Consider the compound CCCOc1nc(N[C@@H](C)[C@H](O)c2ccccc2)c2cnn(-c3ccccc3)c2n1 . Is its Ki strictly less than 6000 nM? Not met
